# literature pull: Cytochrome P450 3A4 (Homo sapiens) IC50

• CC(C)c1ccc(NC(=O)c2cc(F)cnc2NCc2ccnc3[nH]ncc23)cc1 = > 20 µM
• C[C@]1(c2cc(NC(=O)c3ccc(Cl)cn3)ccc2F)N=C(N)O[C@@H]2CC(F)(F)C[C@@H]21 = > 10 µM
• CCCCOc1ccc(C(=O)N2CCC(F)(F)/C(=C\C(=O)NCC(N)=O)c3ccccc32)c(C(F)(F)F)c1 = 13 µM
• [2H]c1c(Cl)c(Oc2cc(C(C([2H])([2H])[2H])C([2H])([2H])[2H])c(=O)[nH]n2)c(Cl)c([2H])c1-n1nc(C#N)c(=O)[nH]c1=O = > 50 µM
• CC(C)c1nc2cc(NC(=O)c3cc(F)cnc3NCc3ccnc4[nH]ccc34)ccc2s1 = > 20 µM
• O=C(Nc1ccc(OC(F)(F)F)cc1)c1cc(F)cnc1NCc1ccnc2[nH]ncc12 = > 20 µM

// next entry
Reported IC50 of `Cc1cc(NC(=O)c2cc(F)cnc2NCc2ccnc3[nH]ccc23)ccc1C(C)C` : > 20 µM

----------
pIC50: −log10 of the molar value.
# literature pull: Cytochrome P450 3A4 (Homo sapiens, UniProt P08684) pIC50

// solved cases for pIC50 follow
• Cc1cc(C#N)cnc1C(=O)Nc1cccc([C@@]2(C)N=C(N)S[C@H](C)[C@@H]2F)c1 = ≤ 4.70
• C[C@H](c1ccc(F)cc1)n1cncc1CN1CCN(S(=O)(=O)c2cnc(N3CCN4CCC(O)[C@H]4C3)s2)CC1 (stereo partly shown) = 8.59
• CCC(C)n1ncn(-c2ccc(N3CCN(c4ccc(OC[C@@H]5CO[C@@](Cn6cnnn6)(c6ccc(Cl)cc6Cl)O5)cn4)CC3)c(F)c2)c1=O (stereo partly shown) = 4.43
• C[C@H](c1ccc(F)cc1)n1cncc1CN1CCN(S(=O)(=O)c2cnc(N3CCN4C(=O)OC[C@H]4C3)s2)CC1 = 8.82
• C[C@]1(c2cc(NC(=O)c3ccc(C#N)cn3)ccc2F)N=C(N)O[C@@H]2CCC(F)(F)[C@@H]21 = < 5.00
• Cc1cn(-c2nccc(CCNCCCc3cccc(F)c3)n2)cn1 = 4.82
• COC[C@H]1SC(N)=N[C@](C)(c2cc(NC(=O)c3ccc(C#N)cn3)ccc2F)[C@H]1F = ≤ 4.70
• C[C@H](c1ccc(F)cc1)n1cncc1CN1CCN(S(=O)(=O)c2cnc(N3CCC(N)(CO)CC3)s2)CC1 = 8.72

Could you report pIC50 for every entry in the following list?
1. Fc1cc(F)c(F)c(-c2ccc(N[C@H]3C[C@@H]4CN(CC5CCOCC5)C[C@@H]4C3)nn2)c1
2. Oc1cccc(-c2ccc(-c3cccc(O)c3)cc2)c1
3. CS(=O)(=O)CC(=O)Nc1c(-c2ccc(Cl)cn2)nn2c1C(=O)N[C@@]1(CCc3cc(F)cc(F)c31)C2
4. N#Cc1ccc(C(=O)Nc2ccc(F)c([C@@]3(CF)N=C(N)O[C@@H]4CC(F)(F)C[C@@H]43)c2)nc1
5. CC(C)S(=O)(=O)c1nn(C)cc1Nc1nc(Nc2ccc(C3CCN(C)CC3)cc2OC2CC2)ncc1Cl

Outgoing:
1. < 4.52
2. 5.67
3. < 4.70
4. < 5.00
5. < 5.00

Could you report pIC50 for every entry in the following list?
1. C=C1C[C@@](C)(c2cncc(NC(=O)c3ncc(C(F)(F)F)cc3Cl)c2)N=C(N)S1
2. C[C@@H](c1ccc(-c2nccs2)cc1)N1CC[C@](CC(C)(C)O)(c2ccccc2)OC1=O
3. C[C@@H](F)COc1ccc(C(=O)N2CCC(F)(F)/C(=C\C(=O)NC[C@H](O)CO)c3ccccc32)c(C(F)(F)F)c1
4. [2H]C([2H])([2H])Oc1cnc(C(=O)Nc2ccc(F)c([C@@]3(C)N=C(N)S[C@H](C)[C@@H]3F)c2)cn1
5. Cc1ccc(-c2ccc([C@H](C)N3CC[C@](CC(C)(C)O)(c4ccccc4)OC3=O)cc2)nn1
6. CC1(c2cc(NC(=O)c3ncc(F)cc3F)ccc2F)Cc2ccncc2C(N)=N1 (stereo not shown)
7. CN(Cc1ccccn1)C(=O)N[C@@H](CCN1CCOCC1)C(=O)N[C@H](CC[C@H](Cc1ccccc1)NC(=O)OCc1cncs1)Cc1ccccc1
8. CC1(C)CN(C(=O)[C@@H]2CCCO2)c2cc(NC(=O)c3cccnc3NCc3ccnc4[nH]ccc34)ccc21

Outgoing:
< 4.70
5.27
< 4.30
≤ 4.70
< 4.30
< 4.70
6.28
< 4.70

Could you report pIC50 for every entry in the following list?
1. CCCCOCCOc1ccc(-c2ccc3c(c2)C=C(C(=O)Nc2ccc([S+]([O-])Cc4c(CC)ccnc4C)cc2)CCCN3CC2CCOCC2)cc1 (single isomer, unassigned)
2. Cc1ncsc1CCC(=O)N[C@H](CC[C@H](Cc1ccccc1)NC(=O)[C@@H](NC(=O)N(C)Cc1csc(C(C)C)n1)C(C)C)Cc1ccccc1
3. C[C@H]1[C@@H](C(F)(F)F)OC(N)=N[C@]1(C)c1cc(NC(=O)c2cnc(OCF)cn2)ccc1F
4. Cc1cnc(Nc2cnn(CCO)c2)nc1-c1ccc(C(=O)N[C@H](C#N)C2CC2)cc1
5. O=C(Nc1ccc(C(F)(F)C(F)(F)F)cc1)c1cccnc1NCc1ccnc2[nH]ccc12

Outgoing:
< 4.30
6.35
≤ 4.70
< 4.30
< 4.70

Could you report pIC50 for every entry in the following list?
1. C[C@H]1CN(C(=O)c2cncn2[C@@H](C)c2ccccc2-c2ccc(F)cc2)CC[C@H]1N1CC[C@@H](O)C1
2. CC(C)(Cn1c(=O)[nH]/c(=N\c2ccc(Oc3cnc(Cl)cn3)cc2)n(Cc2ccc(Cl)cc2)c1=O)C(=O)O

Outgoing:
1: 8.38; 2: < 4.70

----------
# literature pull: Cytochrome P450 3A4 (Homo sapiens, UniProt P08684) IC50
Numbers only, in µM.

* CCc1ccc(NC(=O)c2cc(C(=O)c3cc(OC)ccc3O)coc2=N)cc1 | 14.6

Could you report IC50 for every entry in the following list?
1. CC[C@@H](C#N)NC(=O)c1ccc(-c2nc(Nc3cnn(C4CCN(C)CC4)c3)ncc2Cl)cc1
2. NC(=O)c1cc(Cc2nnc(Nc3ccc(Cl)cc3)c3ccccc23)ccn1
3. Cc1nccc(-c2ccc([C@H](C)N3CC[C@](CC(C)(C)O)(c4ccccc4)OC3=O)cc2)n1
4. O=C(NC1CC1)c1cc(COC2=NN=C(Nc3ccc(Cl)cc3)C3C=COC23)ccn1 (stereo not drawn)
5. COCC(c1cncn1[C@H](C)c1ccc(F)cc1)N1CCN(S(=O)(=O)c2cnc(N3CCN(C)CC3)s2)CC1 (single isomer, unassigned)

Outgoing:
32.1
10
22.8
3.3
0.0038

----------
# literature pull: UniProtKB P08684 pIC50
Numbers only, as −log10 of the molar value.

* CCOc1ncc(-c2ccc([C@H](C)N3CC[C@](CC(C)(C)O)(c4ccccc4)OC3=O)cc2)cc1C | 5.35
* Cc1cnc(Nc2cnn(C3CC(C)(C)OC(C)(C)C3)c2)nc1-c1ccc(C(=O)NCC#N)cc1 | 4.71
* C[C@H](c1ccc(F)cc1)n1cncc1CN1CCN(S(=O)(=O)c2cnc(N3CC[C@@H]4NCCO[C@H]4C3)s2)CC1 | 8.92
* CC(c1cncn1[C@H](C)c1ccc(F)cc1)N1CCN(S(=O)(=O)c2cnc(N3CCN4C[C@H](O)C[C@H]4C3)s2)CC1 (stereo partly drawn) | 8.39
* C[C@@H](c1ccccc1-c1ccc(F)cc1)n1cncc1C(=O)N1CCC(N2CC[C@H](O)[C@@H](F)C2)CC1 | 8.28

Could you report pIC50 for every entry in the following list?
1. CN(C(=O)N[C@@H](CCN1CCOCC1)C(=O)N[C@H](CC[C@H](Cc1ccccc1)NC(=O)OCc1cncs1)Cc1ccccc1)C1CCCCC1
2. COCCC(c1cncn1[C@H](C)c1ccc(F)cc1)N1CCN(S(=O)(=O)c2cnc(N3CCN(C)CC3)s2)CC1 (single isomer, unassigned)

Outgoing:
1: 6.55; 2: 8.37

----------
# literature pull: Cytochrome P450 3A4 (Homo sapiens) IC50

// solved cases for IC50 follow
* CC(=O)NCC[C@H](NC(=O)N1CCCCC1)C(=O)N[C@@H](CC[C@@H](Cc1ccccc1)NC(=O)OCc1cncs1)Cc1ccccc1 | 0.4 µM
* COc1nccc(Oc2ccc(/N=c3\[nH]c(=O)n([C@@H](C)[C@@H](C)C(=O)O)c(=O)n3Cc3ccc(Cl)cc3)cc2)n1 | > 20 µM

// next entry
Reported IC50 of `C[C@]1(c2cc(NC(=O)c3ccc(C#N)cn3)ccc2F)N=C(N)O[C@H](C(F)(F)C2CC2)[C@@H]1F` : ≥ 10 µM

----------
# literature pull: Cytochrome P450 3A4 (Homo sapiens) IC50

// solved cases for IC50 follow
- C[C@H]1SC(N)=N[C@](C)(c2nc(NC(=O)c3ccc(C#N)cn3)ccc2F)[C@H]1F: ≥ 20 µM
- CC(C)(C)c1ccc(NC(=O)c2cccnc2NCc2ccnc3c2CCN3)cc1: > 20 µM
- COc1cnc(C(=O)Nc2ccc(F)c([C@@]3(C)N=C(N)O[C@H](C4(F)CC4)[C@@H]3F)c2)cn1: ≥ 20 µM

Could you report IC50 for every entry in the following list?
1. COc1cc2c(NC3CCN(C(C)C)CC3)nc(-n3cccn3)nc2cc1OCCCN1CCCC1
2. NC(=O)CNC(=O)/C=C1/c2ccccc2N(C(=O)c2ccc(N3CCCC3)cc2Cl)CCC1(F)F
3. CNC(=O)Nc1cc2n(n1)CCN2c1cc(Br)cc(C(=O)Nc2cccc(C(=O)O)c2)c1

Outgoing:
> 100 µM
10 µM
> 20 µM

Hey, Cytochrome P450 3A4 (Homo sapiens) data for `O=C(NC1CCCCC1)N[C@@H](CCN1CCOCC1)C(=O)N[C@H](CC[C@H](Cc1ccccc1)NC(=O)OCc1cncs1)Cc1ccccc1` : IC50 came out at 0.35 µM
